Where a name gives a salt, the structure may show the parent alone.
parameter: melting point

[[record]]
molecule = "CC(C)n1c(C(F)(F)F)nc2cc(C(=O)NC3=Nc4ccccc4C4=NCCN34)ccc21"
result = "250 to 253 °C"

[[record]]
molecule = "O=C(NC1=Nc2ccccc2C2=NCCN12)c1cccc([N+](=O)[O-])c1.O=C(O)C(F)(F)F"
result = "238 to 239 °C"

[[record]]
molecule = "O=C(NC1=Nc2ccccc2C2=NCCN12)c1cccnc1.O=C(O)C(F)(F)F"
result = "237 to 239 °C"

[[record]]
molecule = "O=C(NC1=Nc2ccccc2C2=NCCN12)c1cnc2[nH]cnc2c1"
result = "> 300 °C"

[[record]]
molecule = "COc1ccc2c(c1Br)N=C(NC(=O)c1cccnc1)N1CCN=C21"
result = "264 °C"

[[record]]
molecule = "O/C(=C\\C1=Nc2cnccc2C2=NCCN12)c1cccnc1"
result = "230 °C"

[[record]]
molecule = "Cl.O=C(NC1=Nc2ccccc2C2=NCCN12)c1cccc2[nH]ccc12"
result = "295 °C (dec.)"

[[record]]
molecule = "COc1cc2c(cc1OC)C1=NCCN1C(NC(=O)c1ccc(N)nc1)=N2.Cl"
result = "256 °C"

[[record]]
molecule = "CCC(C(=O)c1ccccc1)C1=Nc2ccccc2C2=NCCN21 (stereo not shown)"
result = "156 to 160 °C"

[[record]]
molecule = "CCOC(=O)c1cc(C(=O)NC2=Nc3ccccc3C3=NCCN23)cc(C(=O)OCC)c1"
result = "289 °C (dec.)"

[[record]]
molecule = "O=C(NC1=Nc2ccccc2C2=NCCN12)c1csc(-c2ccncc2)n1"
result = "281 °C (dec.)"

[[record]]
molecule = "COc1ccc2c(c1OC)N=C(NC(=O)c1ccc3[nH]cnc3c1)N1CCN=C21.Cl"
result = "278 °C (dec.)"

[[record]]
molecule = "Cc1ccc2c(c1)N=C(/C=C(\\O)c1cccnc1)N1CCN=C21"
result = "224 °C"

[[record]]
molecule = "COc1ccc2c(c1OC)N=C(/C=C(\\O)c1cccnc1)N1CCN=C21"
result = "269 to 270 °C"

[[record]]
molecule = "Cc1cccc2c1N=C(NC(=O)c1cccnc1)N1CCN=C21.Cl"
result = "> 290 °C"

[[record]]
molecule = "CC(=O)Nc1ccc(/C(O)=C/C2=Nc3ccccc3C3=NCCN23)cc1"
result = "> 300 °C"

[[record]]
molecule = "O=C(NC1=Nc2ccc(Br)cc2C2=NCCN12)c1cccnc1"
result = "228 °C"

[[record]]
molecule = "Cl.O=C(NC1=Nc2ccccc2C2=NCCN12)c1ccc(-n2cccn2)cc1"
result = "319 °C (dec.)"

[[record]]
molecule = "C=Cc1ccc2c(c1)C1=NCCN1C(NC(=O)c1cccnc1)=N2"
result = "196 to 198 °C"

[[record]]
molecule = "COc1cccc2c1N=C(NC(=O)c1ccc3[nH]cnc3c1)N1CCN=C21"
result = "287 °C"

[[record]]
molecule = "Cl.O=C(NC1=Nc2ccccc2C2=NCCN12)c1csc(-c2ccncc2)n1"
result = "335 °C (dec.)"

[[record]]
molecule = "COc1cc2c(cc1OC)C1=NCCN1C(/C=C(\\O)c1cccnc1)=N2 (as salt: hydrochloride) [Example 1-2]"
result = "> 300 °C"

[[record]]
molecule = "COc1cc2c(c(OC)c1C)N=C(/C=C(\\O)c1ccc(NC(C)=O)nc1)N1CCN=C21.Cl"
result = "> 285 °C"

[[record]]
molecule = "Cl.O/C(=C\\C1=Nc2cc(Br)ccc2C2=NCCN12)c1cccnc1"
result = "233 °C"

[[record]]
molecule = "COc1cc2c(cc1OC)C1=NCCN1C(NC(=O)c1ccc3[nH]cnc3c1)=N2.Cl"
result = "276 °C"

[[record]]
molecule = "COc1cc2c(cc1OC)C1=NCCN1C(/C=C(\\O)c1ccc3[nH]cnc3c1)=N2.Cl"
result = "240 °C (dec.)"

[[record]]
molecule = "O=C(NC1=Nc2cc(OCCO)ccc2C2=NCCN12)c1cccnc1"
result = "210 to 215 °C (dec.)"

[[record]]
molecule = "Cl.O/C(=C\\C1=Nc2ccccc2C2=NCCN12)c1cnccn1"
result = "217 to 222 °C"

[[record]]
molecule = "Cl.O=C(NC1=Nc2ccccc2C2=NCCN12)c1ccc([N+](=O)[O-])s1"
result = "300 °C (dec.)"

[[record]]
molecule = "COc1c(C)ccc2c1N=C(/C=C(\\O)c1ccc(NC(C)=O)nc1)N1CCN=C21.Cl"
result = "273 °C"

[[record]]
molecule = "COc1ncccc1C(=O)NC1=Nc2ccccc2C2=NCCN12"
result = "198 to 199 °C"

[[record]]
molecule = "COc1ccc2c(c1)C1=NCCN1C(/C=C(\\O)c1cccnc1)=N2.Cl"
result = "> 300 °C"

[[record]]
molecule = "COc1cncc(C(=O)NC2=Nc3ccccc3C3=NCCN23)c1"
result = "219 °C (dec.)"

[[record]]
molecule = "Cl.O=C(NC1=Nc2cc(OCCN3CCOCC3)ccc2C2=NCCN12)c1cccnc1"
result = "243 to 247 °C (dec.)"

